details: in n-propanol, 295.15 K
Quantity Name: solubility (mole fraction)
Reply with just the number.

Ask: Can you look up the measured solubility (mole fraction) of OCc1cn(Cc2ccccc2)nn1 for me?
Reply: 0.0502

----------
conditions: in ethanol, 298.15 K
Quantity Name: solubility (mole fraction)

Ask: Can you look up the measured solubility (mole fraction) of OCc1cn(Cc2ccccc2)nn1 for me?
Reply: 0.0833

----------
conditions: in water, 298.15 K
Quantity Name: solubility (mole fraction)
Reply with just the number.

Ask: Can you look up the measured solubility (mole fraction) of OCc1cn(Cc2ccccc2)nn1 for me?
Reply: 0.00197

----------
conditions: in n-butanol, 301.15 K
Quantity Name: solubility (mole fraction)
Reply with just the number.

Ask: Can you look up the measured solubility (mole fraction) of OCc1cn(Cc2ccccc2)nn1 for me?
Reply: 0.0579

----------
conditions: in isopropanol, 295.15 K
Quantity Name: solubility (mole fraction)

Ask: Can you look up the measured solubility (mole fraction) of OCc1cn(Cc2ccccc2)nn1 for me?
Reply: 0.039

----------
conditions: in ethanol, 301.15 K
Quantity Name: solubility (mole fraction)
Reply with just the number.

Ask: Can you look up the measured solubility (mole fraction) of OCc1cn(Cc2ccccc2)nn1 for me?
Reply: 0.103

----------
conditions: in methanol, 307.15 K
Quantity Name: solubility (mole fraction)
Reply with just the number.

Ask: Can you look up the measured solubility (mole fraction) of OCc1cn(Cc2ccccc2)nn1 for me?
Reply: 0.262

----------
conditions: in n-propanol, 298.15 K
Quantity Name: solubility (mole fraction)

Ask: Can you look up the measured solubility (mole fraction) of OCc1cn(Cc2ccccc2)nn1 for me?
Reply: 0.0607

----------
details: in methanol, 304.15 K
Quantity Name: solubility (mole fraction)
Reply with just the number.

Ask: Can you look up the measured solubility (mole fraction) of OCc1cn(Cc2ccccc2)nn1 for me?
Reply: 0.222

----------
details: in methanol, 301.15 K
Quantity Name: solubility (mole fraction)

Ask: Can you look up the measured solubility (mole fraction) of OCc1cn(Cc2ccccc2)nn1 for me?
Reply: 0.2

----------
conditions: in water, 304.15 K
Quantity Name: solubility (mole fraction)
Reply with just the number.

Ask: Can you look up the measured solubility (mole fraction) of OCc1cn(Cc2ccccc2)nn1 for me?
Reply: 0.0029

----------
conditions: in n-butanol, 310.15 K
Quantity Name: solubility (mole fraction)
Reply with just the number.

Ask: Can you look up the measured solubility (mole fraction) of OCc1cn(Cc2ccccc2)nn1 for me?
Reply: 0.1

----------
conditions: in ethanol, 295.15 K
Quantity Name: solubility (mole fraction)
Reply with just the number.

Ask: Can you look up the measured solubility (mole fraction) of OCc1cn(Cc2ccccc2)nn1 for me?
Reply: 0.0681

----------
conditions: in n-butanol, 295.15 K
Quantity Name: solubility (mole fraction)

Ask: Can you look up the measured solubility (mole fraction) of OCc1cn(Cc2ccccc2)nn1 for me?
Reply: 0.0408

----------
settings: in isopropanol, 310.15 K
Quantity Name: solubility (mole fraction)
Reply with just the number.

Ask: Can you look up the measured solubility (mole fraction) of OCc1cn(Cc2ccccc2)nn1 for me?
Reply: 0.112

----------
details: in n-butanol, 304.15 K
Quantity Name: solubility (mole fraction)
Reply with just the number.

Ask: Can you look up the measured solubility (mole fraction) of OCc1cn(Cc2ccccc2)nn1 for me?
Reply: 0.0695
